Numbers sourced from ChEMBL document CHEMBL1145747.

Test system: West Nile virus
Test: Inhibitory activity determined against west nile virus (WNV) NTPase/helicase (NTPase/helicase Non structural protein 3) using DNA as substrate
Format: functional
quantity: IC50

Completed entries (count: 2):
molecule	IC50
CCCCNc1nc(=O)c2c(ncn2C2O[C@H](CO)[C@@H](O)C2O)c(=O)[nH]1 (single isomer, unassigned)	> 300 µg/mL
CCNc1nc(=O)c2c(ncn2C2O[C@H](CO)[C@@H](O)C2O)c(=O)[nH]1 (single isomer, unassigned)	> 300 µg/mL

From here, focus on the item given below.
[in] State the recorded IC50 for this entry: CCCCCCCCCCCCNc1nc(O)c2ncnc-2c(O)n1
[out] > 500 µg/mL

---

System: West Nile virus
Test: Inhibitory activity determined against west nile virus (WNV) NTPase/helicase (NTPase/helicase Non structural protein 3) using RNA as substrate
Assay type: functional
quantity: IC50 (µg/mL)
Respond numerically; units are µg/mL and should not be typed.

Completed entries (count: 3):
compound	targetEntity	quantityUnit	IC50
CCCCCCCCCCCCNc1nc(=O)c2c(ncn2[C@H]2C[C@H](O)[C@@H](CO)O2)c(=O)[nH]1	West Nile virus	µg/mL	1.5
CCCCCCCCCCCCNc1nc(=O)c2c(ncn2[C@@H]2C[C@H](O)[C@@H](CO)O2)c(=O)[nH]1	West Nile virus	µg/mL	100
CCCCCCCCCCCCNc1nc(=O)c2c(ncn2Cc2ccc(OC)cc2)c(=O)[nH]1	West Nile virus	µg/mL	1

[in] State the recorded IC50 for this entry: CCCCCCCCCCCCCCCCNc1nc(=O)c2ncn([C@@H]3O[C@H](CO)[C@@H](O)C3O)c2c(=O)[nH]1 (single isomer, unassigned)
[out] 500

---

As shown below, each of these molecules has a reported IC50 value.
Test system: West Nile virus
Assay: Inhibitory activity determined against west nile virus (WNV) NTPase/helicase (NTPase/helicase Non structural protein 3) using DNA as substrate
Type: functional

Completed entries (count: 3):
molecule	quantity	value
CCCCCCCCNc1nc(=O)c2ncn([C@@H]3O[C@H](CO)[C@@H](O)C3O)c2c(=O)[nH]1 (single isomer, unassigned)	IC50	> 300 µg/mL
CCCCCCCCCCCCNc1nc(=O)c2ncn([C@@H]3O[C@H](CO)[C@@H](O)C3O)c2c(=O)[nH]1 (single isomer, unassigned)	IC50	1 µg/mL
CCCCCCCCCCCCNc1nc(=O)c2c(ncn2Cc2ccc(OC)cc2)c(=O)[nH]1	IC50	5 µg/mL

From here, focus on the item given below.
[in] Field: IC50 (West Nile virus). Entry: CCCCCNc1nc(=O)c2c(ncn2C2O[C@H](CO)[C@@H](O)C2O)c(=O)[nH]1 (single isomer, unassigned)
[out] > 300 µg/mL

---

Target: ATP-dependent RNA helicase SUPV3L1, mitochondrial (Homo sapiens, UniProt Q8IYB8)
Sequence (Q8IYB8 whole entry): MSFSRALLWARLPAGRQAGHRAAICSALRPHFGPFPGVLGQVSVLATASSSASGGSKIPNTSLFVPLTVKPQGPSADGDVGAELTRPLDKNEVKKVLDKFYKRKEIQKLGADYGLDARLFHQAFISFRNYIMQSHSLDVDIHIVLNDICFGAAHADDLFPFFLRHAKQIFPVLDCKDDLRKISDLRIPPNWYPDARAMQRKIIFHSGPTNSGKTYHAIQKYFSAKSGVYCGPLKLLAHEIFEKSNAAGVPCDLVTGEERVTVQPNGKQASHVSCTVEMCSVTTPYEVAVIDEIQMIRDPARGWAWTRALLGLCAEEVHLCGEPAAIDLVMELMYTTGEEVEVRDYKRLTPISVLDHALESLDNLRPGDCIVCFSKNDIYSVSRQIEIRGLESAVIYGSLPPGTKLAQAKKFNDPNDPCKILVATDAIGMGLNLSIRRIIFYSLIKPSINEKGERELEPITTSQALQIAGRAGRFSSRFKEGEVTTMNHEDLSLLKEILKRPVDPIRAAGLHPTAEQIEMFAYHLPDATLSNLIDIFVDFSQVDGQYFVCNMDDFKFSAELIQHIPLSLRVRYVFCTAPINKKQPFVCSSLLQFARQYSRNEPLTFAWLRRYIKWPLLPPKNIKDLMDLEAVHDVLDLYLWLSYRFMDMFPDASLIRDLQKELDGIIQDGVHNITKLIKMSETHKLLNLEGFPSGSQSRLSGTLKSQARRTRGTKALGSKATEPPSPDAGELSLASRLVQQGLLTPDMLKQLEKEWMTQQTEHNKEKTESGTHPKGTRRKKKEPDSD
Experiment: Inhibitory activity determined against human Suv3 helicase using DNA as substrate
quantity: IC50

Completed entries (count: 5):
molecule	IC50
CCCCCCCCCCNc1nc(=O)c2ncn([C@@H]3O[C@H](CO)[C@@H](O)C3O)c2c(=O)[nH]1 (single isomer, unassigned)	> 1110 µM
CCCCCCCCCCCCNc1nc(=O)c2c(ncn2[C@@H]2C[C@H](O)[C@@H](CO)O2)c(=O)[nH]1	539 µM
CCCCCCCCCCCCNc1nc(O)c2ncnc-2c(O)n1	> 1440 µM
CCCCCCCCCCCCCCNc1nc(=O)c2ncn([C@@H]3O[C@H](CO)[C@@H](O)C3O)c2c(=O)[nH]1 (single isomer, unassigned)	591 µM
CCCCCCCCCCCCNc1nc(=O)c2c(ncn2[C@H]2C[C@H](O)[C@@H](CO)O2)c(=O)[nH]1	6.47 µM

[in] State the recorded IC50 for this entry: CCCCCCCCCCCCNc1nc(=O)c2ncn([C@@H]3O[C@H](CO)[C@@H](O)C3O)c2c(=O)[nH]1 (single isomer, unassigned)
[out] > 1040 µM

[in] State the recorded IC50 for this entry: CCCCCCCCCCCCNc1nc(=O)c2c(ncn2Cc2ccc(OC)cc2)c(=O)[nH]1
[out] > 1070 µM

[in] State the recorded IC50 for this entry: CCCCCCCCCCCCCCCCCCNc1nc(=O)c2ncn([C@@H]3O[C@H](CO)[C@@H](O)C3O)c2c(=O)[nH]1 (single isomer, unassigned)
[out] > 887 µM

[in] State the recorded IC50 for this entry: CCCCCCCCCCCCCCCCNc1nc(=O)c2ncn([C@@H]3O[C@H](CO)[C@@H](O)C3O)c2c(=O)[nH]1 (single isomer, unassigned)
[out] > 933 µM

[in] State the recorded IC50 for this entry: O=c1nc(Nc2ccccc2)[nH]c(=O)c2c1ncn2C1O[C@H](CO)[C@@H](O)C1O (single isomer, unassigned)
[out] > 1290 µM

---

System: West Nile virus
Assay: Inhibitory activity determined against west nile virus (WNV) NTPase/helicase (NTPase/helicase Non structural protein 3) using DNA as substrate
Assay type: functional
quantity: IC50 (µg/mL)
Respond numerically; units are µg/mL and should not be typed.

[in] State the recorded IC50 for this entry: CCCCCCCCCCNc1nc(=O)c2ncn([C@@H]3O[C@H](CO)[C@@H](O)C3O)c2c(=O)[nH]1 (single isomer, unassigned)
[out] 30

[in] State the recorded IC50 for this entry: CCCCCCCCCCCCCCCCCCNc1nc(=O)c2ncn([C@@H]3O[C@H](CO)[C@@H](O)C3O)c2c(=O)[nH]1 (single isomer, unassigned)
[out] 5

---

As shown below, each of these molecules has a reported IC50 value.
Tested on: West Nile virus
Test: Inhibitory activity determined against west nile virus (WNV) NTPase/helicase (NTPase/helicase Non structural protein 3) using DNA as substrate
Format: functional
Respond numerically; units are µg/mL and should not be typed.

molecule	targetEntity	IC50 [µg/mL]
CCCCCCCCCCCCCCNc1nc(=O)c2ncn([C@@H]3O[C@H](CO)[C@@H](O)C3O)c2c(=O)[nH]1 (single isomer, unassigned)	West Nile virus	3
CCCCCCCCCCCCNc1nc(=O)c2c(ncn2[C@H]2C[C@H](O)[C@@H](CO)O2)c(=O)[nH]1	West Nile virus	3
CCCCCCCCCCCCCCCCNc1nc(=O)c2ncn([C@@H]3O[C@H](CO)[C@@H](O)C3O)c2c(=O)[nH]1 (single isomer, unassigned)	West Nile virus	250

From here, focus on the item given below.
[in] Field: IC50 (West Nile virus). Entry: CCCCCCCCCCCCNc1nc(=O)c2c(ncn2[C@@H]2C[C@H](O)[C@@H](CO)O2)c(=O)[nH]1
[out] 3

---

As shown below, each of these molecules has a reported pIC50 value.
Molecular target: ATP-dependent RNA helicase SUPV3L1, mitochondrial (Homo sapiens, UniProt Q8IYB8)
Assay: Inhibitory activity against human Suv3 helicase using RNA as substrate
Field pIC50 (float): negative decimal logarithm of the concentration in molar.

molecule	targetEntity	quantity	value
CCCCCCCCCCCCNc1nc(=O)c2ncn([C@@H]3O[C@H](CO)[C@@H](O)C3O)c2c(=O)[nH]1 (single isomer, unassigned)	ATP-dependent RNA helicase SUPV3L1, mitochondrial (Homo sapiens, UniProt Q8IYB8)	pIC50	3.50
CCCCCCCCCCNc1nc(=O)c2ncn([C@@H]3O[C@H](CO)[C@@H](O)C3O)c2c(=O)[nH]1 (single isomer, unassigned)	ATP-dependent RNA helicase SUPV3L1, mitochondrial (Homo sapiens, UniProt Q8IYB8)	pIC50	2.96
CCCCCCCCCCCCCCCCCCNc1nc(=O)c2ncn([C@@H]3O[C@H](CO)[C@@H](O)C3O)c2c(=O)[nH]1 (single isomer, unassigned)	ATP-dependent RNA helicase SUPV3L1, mitochondrial (Homo sapiens, UniProt Q8IYB8)	pIC50	4.27
CCCCCCCCCCCCCCCCNc1nc(=O)c2ncn([C@@H]3O[C@H](CO)[C@@H](O)C3O)c2c(=O)[nH]1 (single isomer, unassigned)	ATP-dependent RNA helicase SUPV3L1, mitochondrial (Homo sapiens, UniProt Q8IYB8)	pIC50	4.25
CCCCCCCCCCCCCCNc1nc(=O)c2ncn([C@@H]3O[C@H](CO)[C@@H](O)C3O)c2c(=O)[nH]1 (single isomer, unassigned)	ATP-dependent RNA helicase SUPV3L1, mitochondrial (Homo sapiens, UniProt Q8IYB8)	pIC50	4.23

From here, focus on the item given below.
[in] State the recorded pIC50 for this entry: CCCCCCCCCCCCNc1nc(=O)c2c(ncn2[C@@H]2C[C@H](O)[C@@H](CO)O2)c(=O)[nH]1
[out] 3.49

---

Tested on: West Nile virus
Test: Inhibitory activity determined against west nile virus (WNV) NTPase/helicase (NTPase/helicase Non structural protein 3) using RNA as substrate
Format: functional
As shown below, each of these compounds has a reported IC50 value.
Respond numerically; units are µg/mL and should not be typed.

compound	IC50 / µg/mL
CCCCCCCCCCCCNc1nc(=O)c2ncn([C@@H]3O[C@H](CO)[C@@H](O)C3O)c2c(=O)[nH]1 (single isomer, unassigned)	10

[in] State the recorded IC50 for this entry: CCCCCCCCCCCCCCCCCCNc1nc(=O)c2ncn([C@@H]3O[C@H](CO)[C@@H](O)C3O)c2c(=O)[nH]1 (single isomer, unassigned)
[out] 100

[in] State the recorded IC50 for this entry: CCCCCCCCCCNc1nc(=O)c2ncn([C@@H]3O[C@H](CO)[C@@H](O)C3O)c2c(=O)[nH]1 (single isomer, unassigned)
[out] 300
